The reported numbers originate from patent US20070117743A1.

Tested on: HT-29
Experiment: SRB colorimetric assay of cell growth and viability, HT-29
Format: cell-based, human
Conditions: 48 hours exposure
Where a SMILES comes first, the peptide text is derived from it. Bridges are numbered along the chain shown (N, C = ends). [ ]: non-standard residue; d: D form. The star is where a group is joined. d(aIle) = CC[C@H](C)[C@@H](N)C(=O)O; d(aThr) = C[C@@H](O)[C@@H](N)C(=O)O; Hexanoyl(5-Me) = CC(C)CCCC(=O)*; Orn = NCCC[C@H](N)C(=O)O; Dhb = C/C=C(\N)C(=O)O
Value Kind: TGI HT-29 (Molar)
# number only, unit Molar dropped from output

Please look up its TGI HT-29: C/C=C1\NC(=O)[C@H](Cc2ccccc2)NC(=O)[C@@H](C(C)C)NC(=O)[C@@H]([C@@H](C)CC)NC(=O)[C@H](NC(=O)[C@H](NC(=O)[C@H](CCCN)NC(=O)[C@H]2CCCN2C(=O)[C@H](NC(=O)[C@@H](NC(=O)[C@@H](NC(=O)[C@@H](CC(C)C)NC(=O)CCCC(C)C)[C@@H](C)O)C(C)C)C(C)C)[C@@H](C)CC)[C@@H](C)OC(=O)[C@H](C(C)C)NC1=O [Compound 35, [D-Leu^13]-KF] 1.62E−06

Please look up its TGI HT-29: C/C=C1\NC(=O)[C@H](Cc2ccccc2)NC(=O)[C@@H](C(C)C)NC(=O)[C@@H]([C@@H](C)CC)NC(=O)[C@H](NC(=O)[C@H](NC(=O)[C@H](CCCN)NC(=O)[C@H]2CCCN2C(=O)[C@H](NC(=O)[C@@H](NC(=O)[C@@H](NC(=O)[C@H](NC(=O)CCCC(C)C)C(C)C)[C@@H](C)O)[C@@H](C)O)C(C)C)[C@@H](C)CC)[C@@H](C)OC(=O)[C@H](C(C)C)NC1=O [Compound 50, [Thr^11]-KF] ({Hexanoyl(5-Me)}-[dV]TT[dV][dP][Orn][d(aIle)][d(aThr)][d(aIle)][dV]F[Dhb]V; ester 8-C) 6.76E−06

---

Test system: SK-MEL-28
Assay: SRB colorimetric assay of cell growth and viability, SK-MEL-28
Format: cell-based, human
Conditions: MEL-28; 48 hours exposure; read-out: LC50 MEL-28
Where a SMILES comes first, the peptide text is derived from it. Bridges are numbered along the chain shown (N, C = ends). [ ]: non-standard residue; d: D form. The star is where a group is joined. d(aIle) = CC[C@H](C)[C@@H](N)C(=O)O; d(aThr) = C[C@@H](O)[C@@H](N)C(=O)O; Hexanoyl(5-Me) = CC(C)CCCC(=O)*; Orn = NCCC[C@H](N)C(=O)O; Dhb = C/C=C(\N)C(=O)O
Value Kind: CC50 (µM)
# number only, unit µM dropped from output

For the record C/C=C1\NC(=O)[C@H](Cc2ccccc2)NC(=O)[C@@H](C(C)C)NC(=O)[C@@H]([C@@H](C)CC)NC(=O)[C@H](NC(=O)[C@H](NC(=O)[C@H](CCCN)NC(=O)[C@H]2CCCN2C(=O)[C@H](NC(=O)[C@@H](NC(=O)[C@H](CCC(=O)O)NC(=O)[C@H](NC(=O)CCCC(C)C)C(C)C)C(C)C)C(C)C)[C@@H](C)CC)[C@@H](C)OC(=O)[C@H](C(C)C)NC1=O [Compound 115, [Glu^12]-KF] ({Hexanoyl(5-Me)}-[dV]EV[dV][dP][Orn][d(aIle)][d(aThr)][d(aIle)][dV]F[Dhb]V; ester 8-C) , what value of CC50 is listed for SK-MEL-28? 6.64
